pEC50 reference
# Tested on: B16-F1 murine melanoma cells
# protocol: Intracellular cAMP in B16-F1 melanoma cells
# Assay type: cell-based
# run parameters: B16-F1 cells, 10^-4-10^-11 M, 30 min, IBMX
# Protocol: B16-F1 (melanoma cell line) cells from American Type Culture Collection (Manassas, Va.) were seeded into flat bottom 96 well plates at 5×10^4/well and cultured overnight in DMEM (Cambrex, Walkersville, Md.) supplemented with 2 mM glutamine, antibiotics (100 U/ml penicillin and 100 […]) and 10% heat-inactivated fetal bovine serum (Invitrogen, Grand Island, N.Y.). […] Intracellular cAMP was measured using a cAMP competition Assay Kit (Amersham Biosciences). […]
Where a SMILES comes first, the peptide text is derived from it. [ ]: non-standard residue; d: D form. dCha = N[C@H](CC1CCCCC1)C(=O)O
Reminder that pEC50 is minus the log10 of a molar concentration.

Consider the following illustrative entries.
CSCC[C@@H](NC(=O)[C@@H](CCC(=O)O)NC(=O)[C@@H](CCCNC(=N)N)NC(=O)[C@@H](Cc1ccccc1)NC(=O)[C@@H](CCCNC(=N)N)NC(=O)[C@@H](Cc1c[nH]c2ccccc12)NC(=O)CNC(=O)[C@@H](CCCCN)NC(=O)[C@H]1CCCN1C(=O)[C@H](NC(C)=O)C(C)C)C(=O)N[C@H](CO)C(=O)N[C@H](Cc1ccc(O)cc1)C(=O)N[C@H](CO)C(N)=O = 5.70
CSCC[C@@H](NC(=O)[C@@H](CCC(=O)O)NC(=O)[C@@H](Cc1c[nH]cn1)NC(=O)[C@@H](CC1CCCCC1)NC(=O)[C@@H](CCCNC(=N)N)NC(=O)[C@@H](Cc1c[nH]c2ccccc12)NC(=O)CNC(=O)[C@@H](CCCCN)NC(=O)[C@H]1CCCN1C(=O)[C@H](NC(C)=O)C(C)C)C(=O)N[C@H](CO)C(=O)N[C@H](Cc1ccc(O)cc1)C(=O)N[C@H](CO)C(N)=O = 7.85
CC[C@@H](C)[C@@H](NC(=O)[C@@H](CO)NC(=O)[C@@H](Cc1c[nH]cn1)NC(=O)[C@@H](CC1CCCCC1)NC(=O)[C@@H](CCCNC(=N)N)NC(=O)[C@@H](Cc1c[nH]c2ccccc12)NC(=O)CNC(=O)[C@@H](CCCCN)NC(=O)[C@H]1CCCN1C(=O)[C@H](NC(C)=O)C(C)C)C(=O)N[C@@H](C(=O)N[C@H](CO)C(=O)N[C@H](CO)C(N)=O)[C@H](C)CC [compound 891, vpkGwr(D-Cha)hsiiss] (Ac-[dV][dP][dK]G[dW][dR][dCha][dH][dS][dI][dI][dS][dS]-NH2) = 7.09
CSCC[C@@H](NC(=O)[C@@H](CCC(=O)O)NC(=O)[C@@H](Cc1c[nH]cn1)NC(=O)[C@@H](Cc1ccccc1)NC(=O)[C@@H](CCCNC(=N)N)NC(=O)[C@@H](Cc1c[nH]c2ccccc12)NC(=O)CNC(=O)[C@@H](CCCCN)NC(=O)[C@H]1CCCN1C(=O)[C@H](NC(C)=O)C(C)C)C(=O)N[C@H](CO)C(=O)N[C@H](Cc1ccc(O)cc1)C(=O)N[C@H](CO)C(N)=O = 5.01

Attention now turns to another entry.
So, CSCC[C@@H](NC(=O)[C@@H](CCC(=O)O)NC(=O)[C@@H](Cc1c[nH]cn1)NC(=O)[C@@H](Cc1ccccc1)NC(=O)[C@@H](CCCNC(=N)N)NC(=O)[C@H](Cc1c[nH]c2ccccc12)NC(=O)CNC(=O)[C@@H](CCCCN)NC(=O)[C@H]1CCCN1C(=O)[C@H](NC(C)=O)C(C)C)C(=O)N[C@H](CO)C(=O)N[C@H](Cc1ccc(O)cc1)C(=O)N[C@H](CO)C(N)=O ? Its pEC50 was 6.57

###

# measured target: MC5R (Homo sapiens, UniProt P33032)
# Sequence (P33032 whole entry): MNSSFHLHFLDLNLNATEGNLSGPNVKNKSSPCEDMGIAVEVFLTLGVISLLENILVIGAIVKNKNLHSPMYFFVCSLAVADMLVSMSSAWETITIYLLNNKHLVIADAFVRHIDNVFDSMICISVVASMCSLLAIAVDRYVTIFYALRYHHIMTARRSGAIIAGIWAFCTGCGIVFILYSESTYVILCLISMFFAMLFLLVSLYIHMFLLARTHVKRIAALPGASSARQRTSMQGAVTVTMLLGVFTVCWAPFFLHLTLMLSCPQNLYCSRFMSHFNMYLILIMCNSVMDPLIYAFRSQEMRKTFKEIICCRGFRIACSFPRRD
# protocol: Competitive binding with 125I-NDP-MSH, HEK293 membrane preparations, MC5R
# run parameters: Ki MC5R, competition with 125I-NDP-MSH; cells noted in μM
Where a SMILES comes first, the peptide text is derived from it. [ ]: non-standard residue; d: D form. dCha = N[C@H](CC1CCCCC1)C(=O)O
compounds and their reported Ki

CC[C@@H](C)[C@@H](NC(=O)[C@@H](CO)NC(=O)[C@@H](Cc1c[nH]cn1)NC(=O)[C@@H](CC1CCCCC1)NC(=O)[C@@H](CCCNC(=N)N)NC(=O)[C@@H](Cc1c[nH]c2ccccc12)NC(=O)CNC(=O)[C@@H](CCCCN)NC(=O)[C@H]1CCCN1C(=O)[C@H](NC(C)=O)C(C)C)C(=O)N[C@@H](C(=O)N[C@H](CO)C(=O)N[C@H](CO)C(N)=O)[C@H](C)CC [compound 891, vpkGwr(D-Cha)hsiiss] (Ac-[dV][dP][dK]G[dW][dR][dCha][dH][dS][dI][dI][dS][dS]-NH2) = ~2.5 µM
CC[C@@H](C)[C@@H](NC(=O)[C@@H](CO)NC(=O)[C@@H](Cc1c[nH]cn1)NC(=O)[C@H](Cc1ccccc1)NC(=O)[C@@H](CCCNC(=N)N)NC(=O)[C@@H](Cc1c[nH]c2ccccc12)NC(=O)CNC(=O)[C@@H](CCCCN)NC(=O)[C@H]1CCCN1C(=O)[C@H](NC(C)=O)C(C)C)C(=O)N[C@@H](C(=O)N[C@H](CO)C(=O)N[C@H](CO)C(N)=O)[C@H](C)CC [compound 880, vpkGwrFhsiiss] (Ac-[dV][dP][dK]G[dW][dR]F[dH][dS][dI][dI][dS][dS]-NH2) = > 30 µM

Consider the additional compound presented here.
Ki reading for CSCC[C@@H](NC(=O)[C@@H](CCC(=O)O)NC(=O)[C@@H](Cc1c[nH]cn1)NC(=O)[C@@H](Cc1ccccc1)NC(=O)[C@H](CCCNC(=N)N)NC(=O)[C@@H](Cc1c[nH]c2ccccc12)NC(=O)CNC(=O)[C@@H](CCCCN)NC(=O)[C@H]1CCCN1C(=O)[C@H](NC(C)=O)C(C)C)C(=O)N[C@H](CO)C(=O)N[C@H](Cc1ccc(O)cc1)C(=O)N[C@H](CO)C(N)=O : > 30 µM

###

# measured target: MC5R (Homo sapiens, UniProt P33032)
# protocol: Competitive binding with 125I-NDP-MSH, HEK293 membrane preparations, MC5R
# run parameters: Ki MC5R, competition with 125I-NDP-MSH; cells noted in μM
Where a SMILES comes first, the peptide text is derived from it. [ ]: non-standard residue; d: D form.
metric: Ki

CCCCSCC[C@@H](NC(=O)[C@@H](CCC(=O)O)NC(=O)[C@@H](Cc1c[nH]cn1)NC(=O)[C@@H](Cc1ccccc1)NC(=O)[C@@H](CCCNC(=N)N)NC(=O)[C@@H](Cc1c[nH]c2ccccc12)NC(=O)CNC(=O)[C@@H](CCCCN)NC(=O)[C@H]1CCCN1C(=O)[C@H](NC(C)=O)C(C)C)C(=O)N[C@H](CO)C(=O)N[C@H](Cc1ccc(O)cc1)C(=O)N[C@H](CO)C(N)=O = ~30 µM

Please examine the following record next.
Notebook: CC[C@@H](C)[C@@H](NC(=O)[C@@H](CO)NC(=O)[C@@H](Cc1c[nH]cn1)NC(=O)[C@@H](Cc1ccccc1)NC(=O)[C@@H](CCCNC(=N)N)NC(=O)[C@@H](Cc1c[nH]c2ccccc12)NC(=O)CNC(=O)[C@@H](CCCCN)NC(=O)[C@H]1CCCN1C(=O)[C@H](NC(C)=O)C(C)C)C(=O)N[C@@H](C(=O)N[C@H](CO)C(=O)N[C@H](CO)C(N)=O)[C@H](C)CC [compound 886, vpkgwrfhsiiss] (Ac-[dV][dP][dK]G[dW][dR][dF][dH][dS][dI][dI][dS][dS]-NH2) , Ki read as ~20 µM

###

# Test system: B16-F1 murine melanoma cells
# protocol: Intracellular cAMP in B16-F1 melanoma cells
# Format: cell-based
# run parameters: B16-F1 cells, 10^-4-10^-11 M, 30 min, IBMX
metric: EC50 (nM)
The figure you give is taken to be in nM; do not add the unit.

Reported EC50 for CSCC[C@@H](NC(=O)[C@@H](CCC(=O)O)NC(=O)[C@H](Cc1c[nH]cn1)NC(=O)[C@@H](Cc1ccccc1)NC(=O)[C@@H](CCCNC(=N)N)NC(=O)[C@@H](Cc1c[nH]c2ccccc12)NC(=O)CNC(=O)[C@@H](CCCCN)NC(=O)[C@H]1CCCN1C(=O)[C@H](NC(C)=O)C(C)C)C(=O)N[C@H](CO)C(=O)N[C@H](Cc1ccc(O)cc1)C(=O)N[C@H](CO)C(N)=O was 300
